Biological target: T1, Chicken gizzard tropomyosin (Tpm), purified (chicken)
T1 construct: Bought from Sigma and coated on 96-well plates; also called purified Tpm; immobilized Tpm
T1 sequence (chain, as listed by the source limits assumed): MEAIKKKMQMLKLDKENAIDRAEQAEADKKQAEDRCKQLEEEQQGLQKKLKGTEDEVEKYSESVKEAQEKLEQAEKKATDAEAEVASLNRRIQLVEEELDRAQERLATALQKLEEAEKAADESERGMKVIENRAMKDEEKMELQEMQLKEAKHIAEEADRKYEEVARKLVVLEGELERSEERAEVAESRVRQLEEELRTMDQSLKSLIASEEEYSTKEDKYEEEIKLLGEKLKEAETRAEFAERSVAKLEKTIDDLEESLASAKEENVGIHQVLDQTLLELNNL
Assay: displacement of 10 nM biotin-HKa from immobilized chicken gizzard Tpm, 10 µM ZnCl2
pIC50: −log10 of the molar value. Ends that are not written are not given here. * marks the point of attachment. Fmoc = O=C(OCC1c2ccccc2-c2ccccc21)*
The binders listed here are annotated with their pIC50.
value_kind: pIC50

binder	value_kind	numeric_readout
{3‑(1-adamantyl)propanoyl}-HHPHG [ATN-281.000.01 (3-(1-adamantyl)propanoyl N-capped HHPHG)]	pIC50	4.23
Fmoc-HHPHG (The text says the N-terminus of the pentapeptide HHPHG was capped) [ATN-278.000.01 (Fmoc N-capped HHPHG)]	pIC50	4.26
{4‑Chlorobenzyl}-HHPHG [ATN-276.000.01 (4-Chlorobenzyl N-capped HHPHG)]	pIC50	4.64
HHPHG (not fully specified (N-terminus)) [ATN-275.000.01 ((1S)-(+)-camphorsulphonyl N-capped HHPHG)]	pIC50	4.52
